molecular target: Fuc(a1-2)[GalNAc(a1-3)]Gal(b1-4)GlcNAc(b1-3)Gal(b1-4)GlcNAc; assay: glycan array binding signal (z-score within array); higher = stronger binding; details: glycan notation: IUPAC condensed, linker removed
Only a selection was taken, and the strongest signals are over-represented in it overall.
Assign glycan array binding signal (z-score) to each entry below.
// return just the number, without any unit appended

Entry Drgal1 (Danio rerio) (protein) MAGVLIQNMSFKVGQTLTITGVPKPDSTNFAINIGHSPEDIALHMNPRFDAHGDQCTIVCNSFQSGSWCEEHRDDNFPFIQDKEFQIKITFTNEEFLVTLPDGSEIHFPNRQGSEKYKYMYFEGEVRIQGVEIK ; glycan array binding signal (z-score) = -0.493

Entry LFA (Limax flavus) (protein) MSVLFLAASFLLLASFELVAAQGCPRQDPGDWIVIQRRLNADVNFYRGWADYKHGFGDLRCNFWLGNEKIHQLTSHGRYKLRVEFTFNNKSYFAEYSTFKILGEADKYKLQVGGYSGNAGDALTFHNGMAFSTNDRDNDADSIDCAKVYHGAWWYKTCHESNLNGKWGSKKYGEGLNWKAKTTFTATATSSLLKIKALK ; glycan array binding signal (z-score) = -0.192
